Recorded values, source ChEMBL document CHEMBL4665683.

# reported inhibition zone (IZ); entries follow
system: Mycolicibacterium vaccae; experiment: Antibacterial activity against Mycobacterium vaccae IMET 10670 assessed as zone of inhibition after 24 hrs by disk diffusion method; type: functional

| SMILES STRUCTURE | EXPERIMENTAL SYSTEM | inhibition zone (IZ), mm |
| --- | --- | --- |
| C[C@H]1CCC[C@@]2(C)CC[C@@H](C(C)(C)O)C[C@]12O | Mycolicibacterium vaccae | 14 |
| O=C(N[C@H](CO)[C@H](O)c1ccc([N+](=O)[O-])cc1)C(Cl)Cl | Mycolicibacterium vaccae | 20 |
| C[C@H]1C(=O)CC[C@@]2(C)CCCC[C@]12O | Mycolicibacterium vaccae | 0 |
| C[C@H]1CCC[C@@]2(C)CC[C@@H](O)C[C@]12O | Mycolicibacterium vaccae | 0 |
| C[C@@H]1[C@H](O)[C@@H](C)/C=C/C=C/C=C/C=C/C=C/C=C/C=C/[C@H](O[C@@H]2O[C@H](C)[C@@H](O)[C@H](N)[C@@H]2O)C[C@@H]2O[C@](O)(C[C@@H](O)C[C@@H](O)[C@H](O)CC[C@@H](O)C[C@@H](O)CC(=O)O[C@H]1C)C[C@H](O)[C@H]2C(=O)O | Mycolicibacterium vaccae | 13 |

* * *

test system: Sporobolomyces salmonicolor; assay: Antifungal activity against Sporidiobolus salmonicolor SBUG 549 assessed as zone of inhibition after 24 hrs by disk diffusion method; assay type: functional
Collected inhibition zone (IZ) values appear next to each entry.
MEASURE: inhibition zone (IZ) (mm)

| SMILES STRUCTURE | EXPERIMENTAL SYSTEM | MEASURED |
| --- | --- | --- |
| C[C@H]1C(=O)CC[C@@]2(C)CCCC[C@]12O | Sporobolomyces salmonicolor | 0 |
| C[C@H]1CCC[C@@]2(C)CC[C@@H](C(C)(C)O)C[C@]12O | Sporobolomyces salmonicolor | 12 |
| C[C@@H]1[C@H](O)[C@@H](C)/C=C/C=C/C=C/C=C/C=C/C=C/C=C/[C@H](O[C@@H]2O[C@H](C)[C@@H](O)[C@H](N)[C@@H]2O)C[C@@H]2O[C@](O)(C[C@@H](O)C[C@@H](O)[C@H](O)CC[C@@H](O)C[C@@H](O)CC(=O)O[C@H]1C)C[C@H](O)[C@H]2C(=O)O | Sporobolomyces salmonicolor | 13 |
| C[C@H]1CCC[C@@]2(C)CC[C@@H](O)C[C@]12O | Sporobolomyces salmonicolor | 0 |
